Measured Emax of individual entries
- Tgt: B2-AR (Homo sapiens)
- Construct: expressed in transfected cells; host or cells: CHO-K1
- Sequence (P07550 whole entry, species assumed): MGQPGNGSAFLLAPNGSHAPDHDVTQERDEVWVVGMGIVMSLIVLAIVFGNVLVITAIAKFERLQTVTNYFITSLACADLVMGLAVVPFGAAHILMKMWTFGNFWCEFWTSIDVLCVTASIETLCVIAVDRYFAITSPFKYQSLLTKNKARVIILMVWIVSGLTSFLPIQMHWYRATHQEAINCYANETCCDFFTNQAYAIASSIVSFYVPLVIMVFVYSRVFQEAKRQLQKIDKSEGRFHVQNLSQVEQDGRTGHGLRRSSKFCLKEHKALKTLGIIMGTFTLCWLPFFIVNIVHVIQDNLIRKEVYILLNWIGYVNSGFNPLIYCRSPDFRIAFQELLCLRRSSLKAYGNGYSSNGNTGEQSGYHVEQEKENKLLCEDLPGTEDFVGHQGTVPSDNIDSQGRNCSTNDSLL
- Measurement Description: cAMP Gs dynamic HTRF assay, cells expressing beta-adrenergic receptor (CHO-K1), B2-AR
- Assay type: cell-based
- Measurement Context: CHO-K1, CHO-K1 cells, relative to full agonist isoproterenol; read-out: Emax (% iso) (%) [B2-AR]
Assay Metric: Emax

In [3]: df
Out[3]:
                           structure_smiles  assay_metric  experimental_result
0        CC(C)NC[C@H](O)c1cccc2[nH]cc(F)c12          Emax                > 90%
1   CCc1cc([C@@H](O)CNC(C)(C)C)c2cn[nH]c2c1          Emax                < 50%
2  CC(C)(C)NC[C@H](O)c1cc(F)c(Cl)c2[nH]ncc12          Emax            70 to 90%
3  CC(C)[C@H](C)NC[C@H](O)c1ccc(F)c2[nH]ncc12          Emax                > 90%
4    CC1(NC[C@H](O)c2cccc3[nH]cc(F)c23)CCC1          Emax                > 90%
5    CCC(C)(C)NC[C@H](O)c1cccc2[nH]cc(F)c12          Emax                > 90%
6  C[C@@H](NC[C@H](O)c1cccc2[nH]ncc12)C1CC1          Emax                > 90%
7       Cc1n[nH]c2cccc([C@@H](O)CNC3CC3)c12          Emax            70 to 90%
8        CC(C)(C)NC[C@H](O)c1cc2cccnc2cc1Cl          Emax                < 50%
9     CC(C)(C)NC[C@H](O)c1cc(F)cc2[nH]cnc12          Emax            70 to 90%
